# STUDY_SYSTEM: UniProt:P08183
# EXPERIMENT_NOTES: in vitro
# ASSAY_CONTEXT: dog, MDCK-MDR1, Papp
# Description: Apparent permeability (Papp) from basolateral to apical side determined in MDR1-MDCKII cells
Parameter Papp B→A: see the listing below.

[
  {
    "MOLECULE": "CC(C)NCC(O)COc1cccc2ccccc12 (stereo not drawn)",
    "Papp B→A, ×10⁻⁶ cm/s": 51.4
  },
  {
    "MOLECULE": "CC[C@H]1OC(=O)[C@H](C)[C@@H](O[C@H]2C[C@@](C)(OC)[C@@H](O)[C@H](C)O2)[C@H](C)[C@@H](O[C@@H]2O[C@H](C)C[C@H](N(C)C)[C@H]2O)[C@](C)(OC)C[C@@H](C)C(=O)[C@H](C)[C@@H](O)[C@]1(C)O",
    "Papp B→A, ×10⁻⁶ cm/s": 33.6
  },
  {
    "MOLECULE": "CC(C)(C)NC(=O)[C@@H]1C[C@@H]2CCCC[C@@H]2CN1C[C@@H](O)[C@H](Cc1ccccc1)NC(=O)[C@H](CC(N)=O)NC(=O)c1ccc2ccccc2n1",
    "Papp B→A, ×10⁻⁶ cm/s": 49.5
  },
  {
    "MOLECULE": "COC(=O)Nc1nc2ccc(C(=O)c3ccccc3)cc2[nH]1",
    "Papp B→A, ×10⁻⁶ cm/s": 64.8
  },
  {
    "MOLECULE": "CCC(C)n1ncn(-c2ccc(N3CCN(c4ccc(OCC5COC(Cn6cncn6)(c6ccc(Cl)cc6Cl)O5)cc4)CC3)cc2)c1=O (stereo not drawn)",
    "Papp B→A, ×10⁻⁶ cm/s": 55.2
  },
  {
    "MOLECULE": "CCN(CC)CCCC(C)Nc1ccnc2cc(Cl)ccc12 (stereo not drawn)",
    "Papp B→A, ×10⁻⁶ cm/s": 17.2
  },
  {
    "MOLECULE": "CC(C)(C)c1ccc(C(O)CCCN2CCC(C(O)(c3ccccc3)c3ccccc3)CC2)cc1 (stereo not drawn)",
    "Papp B→A, ×10⁻⁶ cm/s": 30.6
  },
  {
    "MOLECULE": "COC(=O)C1=C(C)NC(C)=C(C(=O)OCCN(C)Cc2ccccc2)C1c1cccc([N+](=O)[O-])c1 (stereo not drawn)",
    "Papp B→A, ×10⁻⁶ cm/s": 66.1
  }
]

---

Reported efflux ratio values follow for various compounds
# STUDY_SYSTEM: ATP-dependent translocase ABCB1 (MDR1) (Homo sapiens, UniProt P08183)
# Sequence (P08183 whole entry): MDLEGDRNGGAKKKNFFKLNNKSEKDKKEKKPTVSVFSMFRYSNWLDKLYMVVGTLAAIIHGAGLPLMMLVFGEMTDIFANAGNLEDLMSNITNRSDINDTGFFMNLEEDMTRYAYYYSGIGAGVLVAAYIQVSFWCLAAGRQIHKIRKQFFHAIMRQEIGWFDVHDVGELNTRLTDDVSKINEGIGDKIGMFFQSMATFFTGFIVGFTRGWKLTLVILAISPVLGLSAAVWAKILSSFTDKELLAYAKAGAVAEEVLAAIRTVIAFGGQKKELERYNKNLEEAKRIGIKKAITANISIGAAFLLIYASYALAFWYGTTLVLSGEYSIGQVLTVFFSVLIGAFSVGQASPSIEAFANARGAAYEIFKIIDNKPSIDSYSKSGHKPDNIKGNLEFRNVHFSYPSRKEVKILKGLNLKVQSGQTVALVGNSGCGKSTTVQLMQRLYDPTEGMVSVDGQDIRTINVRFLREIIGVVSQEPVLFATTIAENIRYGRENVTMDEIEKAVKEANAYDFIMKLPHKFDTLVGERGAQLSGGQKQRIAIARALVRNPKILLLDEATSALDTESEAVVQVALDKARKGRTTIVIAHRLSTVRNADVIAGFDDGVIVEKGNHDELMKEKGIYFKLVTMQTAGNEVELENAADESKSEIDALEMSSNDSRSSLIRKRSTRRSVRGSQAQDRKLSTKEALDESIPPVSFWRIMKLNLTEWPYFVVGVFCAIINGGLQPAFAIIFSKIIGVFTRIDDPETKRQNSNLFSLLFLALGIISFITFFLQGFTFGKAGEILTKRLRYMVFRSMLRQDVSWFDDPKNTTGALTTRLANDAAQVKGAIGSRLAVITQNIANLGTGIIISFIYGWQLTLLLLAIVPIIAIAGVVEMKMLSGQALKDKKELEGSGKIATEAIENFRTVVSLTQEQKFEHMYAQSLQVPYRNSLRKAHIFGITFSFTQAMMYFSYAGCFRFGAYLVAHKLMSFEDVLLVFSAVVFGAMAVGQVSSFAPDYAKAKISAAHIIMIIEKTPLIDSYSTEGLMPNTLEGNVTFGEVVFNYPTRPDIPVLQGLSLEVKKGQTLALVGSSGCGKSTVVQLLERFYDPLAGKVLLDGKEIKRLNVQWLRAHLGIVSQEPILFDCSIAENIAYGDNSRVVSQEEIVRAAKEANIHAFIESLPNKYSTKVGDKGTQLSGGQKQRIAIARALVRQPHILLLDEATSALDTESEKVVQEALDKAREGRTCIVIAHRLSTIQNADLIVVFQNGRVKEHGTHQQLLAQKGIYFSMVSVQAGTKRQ
# EXPERIMENT_NOTES: in vitro
# ASSAY_CONTEXT: dog, MDCK-MDR1, Ratio_Papp
# Description: Ratio of apparent permeability from basolateral to apical side over apical to basolateral side determined in MDR1-MDCKII cells
MEASUREMENT_LABEL: efflux ratio

[
  {
    "COMPOUND": "C=C[C@H]1C[N@@]2CC[C@H]1C[C@@H]2[C@@H](O)c1ccnc2ccc(OC)cc12 [QUINIDINE]",
    "QUAL": "=",
    "NUMBER": 27.2
  },
  {
    "COMPOUND": "CNS(=O)(=O)Cc1ccc2[nH]cc(CCN(C)C)c2c1",
    "QUAL": "=",
    "NUMBER": 1.37
  },
  {
    "COMPOUND": "CC(=O)O[C@H]1C(=O)[C@@]2(C)[C@H]([C@H](OC(=O)c3ccccc3)[C@]3(O)C[C@H](OC(=O)[C@H](O)[C@@H](NC(=O)c4ccccc4)c4ccccc4)C(C)=C1C3(C)C)[C@]1(OC(C)=O)CO[C@@H]1C[C@@H]2O [PACLITAXEL]",
    "QUAL": ">",
    "NUMBER": 108
  }
]
